# Target Entity: UniProt:P31389
# Sequence (P31389 whole entry): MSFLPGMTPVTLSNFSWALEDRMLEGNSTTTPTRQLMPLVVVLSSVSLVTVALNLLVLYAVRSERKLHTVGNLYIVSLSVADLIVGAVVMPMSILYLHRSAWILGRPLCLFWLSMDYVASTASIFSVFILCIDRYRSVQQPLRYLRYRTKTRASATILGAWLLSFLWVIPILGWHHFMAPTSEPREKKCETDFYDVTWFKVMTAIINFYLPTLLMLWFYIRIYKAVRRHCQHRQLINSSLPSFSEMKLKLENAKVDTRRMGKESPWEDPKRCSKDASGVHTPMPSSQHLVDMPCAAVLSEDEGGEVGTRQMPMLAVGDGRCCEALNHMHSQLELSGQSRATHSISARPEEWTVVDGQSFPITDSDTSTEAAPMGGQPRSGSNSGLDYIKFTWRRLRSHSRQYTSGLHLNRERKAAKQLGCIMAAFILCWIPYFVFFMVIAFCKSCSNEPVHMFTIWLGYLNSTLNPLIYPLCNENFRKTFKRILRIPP
# Assay Notes: In vitro for histamine H1 receptor antagonist activity against histamine-induced contractions on isolated guinea pig ileum
# Format: functional, tissue-based
# Measurement Parameters: read-out: pA2 (converted)
Response key: satisfied means Kb >= 80 nM; not satisfied means Kb < 80 nM.

Past entries and their recorded results:
CN(C)CCCN1C(=O)CSC1c1cccc(F)c1 (stereo not given)
satisfied
CN(C)CCCN1C(=O)CSC1c1ccccc1 (stereo not given)
not satisfied
CN(C)CCCN1C(=O)CSC1c1cccc(Cl)c1 (stereo not given)
satisfied
CN(C)CCCN1C(=O)CSC1c1cccc(Br)c1 (stereo not given)
satisfied
CN(C)CCCN1C(=O)CSC1c1ccc(Cl)cc1 (stereo not given)
satisfied
COc1cccc(C2SCC(=O)N2CCCN(C)C)c1 (stereo not given)
satisfied
CN(C)CCCN1C(=O)CSC1c1ccc(N)cc1 (stereo not given)
satisfied
Cc1cccc(C2SCC(=O)N2CCCN(C)C)c1 (stereo not given)
not satisfied
Cc1ccc(C2SCC(=O)N2CCCN(C)C)cc1 (stereo not given)
not satisfied
CN(C)CCCN1C(=O)CSC1c1cccc([N+](=O)[O-])c1 (stereo not given)
satisfied

Ask: I'd appreciate it if you could say whether CC(C)c1ccc(C2SCC(=O)N2CCCN(C)C)cc1 (stereo not given) has Kb at least equal to 80 nM.
Reply: not satisfied

Ask: I'd appreciate it if you could say whether CN(C)CCCN1C(=O)CSC1c1ccc([N+](=O)[O-])cc1 (stereo not given) has Kb at least equal to 80 nM.
Reply: satisfied

Ask: I'd appreciate it if you could say whether CN(C)CCCN1C(=O)CSC1c1ccc(Br)cc1 (stereo not given) has Kb at least equal to 80 nM.
Reply: not satisfied

Ask: I'd appreciate it if you could say whether COc1ccc(C2SCC(=O)N2CCCN(C)C)cc1 (stereo not given) has Kb at least equal to 80 nM.
Reply: satisfied
